Values from patent US11912794B2

Each entry below carries its reported Observable in rat plasma, for days.
- method_summary: Plasma stability profiling method 1 (35% plasma, MALDI-TOF, qualitative)
- Assay type: in vitro ADME, rat
- settings: 35% rat plasma, 37 deg C, method 1, comparative estimate
Numbered stars: 1 amine (or outer) side, 2 acyl side, 3 side chain; on linkers, the order of the positions; unused ones are H or OH. Bridge positions count the residues as written; N and C are the ends. Square brackets hold non-standard residues; d marks the D form. Peptide text beside a SMILES is read from it. TBMB = c1c(C[*:1])cc(C[*:3])cc1C[*:2]; Pen = CC(C)(S)[C@H](N)C(=O)O; Abu = CC[C@H](N)C(=O)O; Aib = CC(C)(N)C(=O)O
Form entry: value (days) — number only.

| molecule | Observable in rat plasma, for days, days |
| --- | --- |
| CC(=O)N[C@H]1CSCc2cc3cc(c2)CSC(C)(C)[C@H](NC(=O)[C@H](CCCNC(=N)N)NC(=O)[C@H](C)NC(=O)[C@@H]2CCCN2C(=O)[C@H](Cc2c[nH]c4ccccc24)NC(=O)[C@H](CO)NC1=O)C(=O)N[C@@H](CC(C)C)C(=O)N[C@@H](Cc1c[nH]cn1)C(=O)N[C@@H](CCC(N)=O)C(=O)N[C@@H](CC(=O)O)C(=O)N[C@@H](CC(C)C)C(=O)N[C@H](C(N)=O)CSC3 [Ac-(06-34-18) Cys2ToPen2] (Ac-CSWPAR[Pen]LHQDLC-NH2; linker 1-7-13 via TBMB) | 5 |
| CC(=O)N[C@H]1CSCc2cc3cc(c2)CSC[C@H](NC(=O)[C@H](CCCNC(=N)N)NC(=O)[C@H](C)NC(=O)C(C)(C)NC(=O)[C@H](Cc2c[nH]c4ccccc24)NC(=O)[C@H](CO)NC1=O)C(=O)N[C@@H](CC(C)C)C(=O)N[C@@H](Cc1c[nH]cn1)C(=O)N[C@@H](CCC(N)=O)C(=O)N[C@@H](CC(=O)O)C(=O)N[C@@H](CC(C)C)C(=O)N[C@H](C(N)=O)CSC3 [Ac-(06-34-18) Aib3] (Ac-CSW[Aib]ARCLHQDLC-NH2; linker 1-7-13 via TBMB) | 2 |

**Query** // returns reported Observable in rat plasma, for days for input CC[C@@H]1NC(=O)[C@@H]2CCCN2C(=O)[C@H](Cc2c[nH]c3ccccc23)NC(=O)[C@H](CO)NC(=O)[C@@H](NC(C)=O)CSCc2cc3cc(c2)CSC[C@H](NC(=O)[C@H](CCCNC(=N)N)NC1=O)C(=O)N[C@@H](CC(C)C)C(=O)N[C@@H](Cc1c[nH]cn1)C(=O)N[C@@H](CCC(N)=O)C(=O)N[C@@H](CC(=O)O)C(=O)N[C@@H](CC(C)C)C(=O)N[C@H](C(N)=O)CSC3 [Ac-(06-34-18) Aba4] (Ac-CSWP[Abu]RCLHQDLC-NH2; linker 1-7-13 via TBMB)
**Result** 2
